# inhibition at 0.01 µM per record follows
Biological target: USP2^CD (purified catalytic domain of USP2) (Homo sapiens)
Construct: The purified catalytic domain of USP2 (USP2^CD, in-house purified); His; made in house; host or cells: E. coli BL21 Gold
Sequence (O75604 267-599 limits assumed): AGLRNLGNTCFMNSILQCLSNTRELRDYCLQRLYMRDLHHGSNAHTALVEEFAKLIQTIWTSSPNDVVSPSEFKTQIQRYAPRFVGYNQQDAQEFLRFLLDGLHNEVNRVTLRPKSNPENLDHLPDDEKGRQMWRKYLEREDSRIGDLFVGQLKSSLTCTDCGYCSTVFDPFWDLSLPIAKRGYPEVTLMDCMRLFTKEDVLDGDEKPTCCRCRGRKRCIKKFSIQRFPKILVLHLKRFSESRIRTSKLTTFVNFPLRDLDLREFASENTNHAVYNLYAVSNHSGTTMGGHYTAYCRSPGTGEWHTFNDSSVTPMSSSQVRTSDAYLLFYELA
Experiment: Inhibition of purified USP2^CD enzymatic activity (Ub-AMC or Ub-Rho substrate)
Format: biochemical
Conditions: 0.01 μM compound; Table 1c
Description: USP2CD or USP8CD were expressed in E. coli BL21 Gold. Cells were grown in LB Miller to mid-log phase and induced by addition of 0.5 mM IPTG for USP2CD for 5 h at 20° C., while 1 mM IPTG was added for USP8CD for 3 h at 37° C. Then, cells were harvested and frozen at −80° C. For His-tagged USP2CD, cells were resuspended in buffer C (10 mM TRIS pH 8.0, 100 mM NaCl, 10 mM Imidazole) and lysed using a sonicator. […]

molecule: O=C1c2ccccc2C(=O)c2nc(CS(=O)(=O)c3cccc(Cl)c3)c(CS(=O)(=O)c3cccc(Cl)c3)nc21 [OVM15]
target.desc: USP2^CD (purified catalytic domain of USP2) (Homo sapiens)
recorded.metric: inhibition at 0.01 µM
reported: 19%
//
molecule: O=C1c2ccccc2C(=O)c2nc(CS(=O)(=O)c3ccccc3F)c(CS(=O)(=O)c3ccccc3F)nc21 [OVM24]
target.desc: USP2^CD (purified catalytic domain of USP2) (Homo sapiens)
recorded.metric: inhibition at 0.01 µM
reported: -29%
//
molecule: COc1ccc(S(=O)(=O)Cc2nc3c(nc2CS(=O)(=O)c2ccc(OC)cc2)C(=O)c2ccccc2C3=O)cc1 [PCR7994]
target.desc: USP2^CD (purified catalytic domain of USP2) (Homo sapiens)
recorded.metric: inhibition at 0.01 µM
reported: -8%

input: Return the recorded inhibition at 0.01 µM value; entry: CCS(=O)(=O)Cc1nc2c(nc1CS(=O)(=O)CC)C(=O)c1ccccc1C2=O [VIN6075]
output: 11%

input: Return the recorded inhibition at 0.01 µM value; entry: CCCS(=O)(=O)Cc1nc2c(nc1CS(=O)(=O)CCC)C(=O)c1ccccc1C2=O [VIN6074]
output: 1%

input: Return the recorded inhibition at 0.01 µM value; entry: O=C1c2ccccc2C(=O)c2nc(CS(=O)(=O)c3ccc(F)c(F)c3F)c(CS(=O)(=O)c3ccc(F)c(F)c3F)nc21 [OVM23]
output: -20%

input: Return the recorded inhibition at 0.01 µM value; entry: O=C1c2ccccc2C(=O)c2nc(CS(=O)(=O)c3ccc4c(c3)OCCO4)c(CS(=O)(=O)c3ccc4c(c3)OCCO4)nc21 [OVM19]
output: -19%
